test system: HT-1080; test: Antiproliferative activity against human HT1080 cells by MTT assay; assay type: functional, cell-based
pIC50: −log10 of the molar value.
readout_name: pIC50

Input `Cc1cc(=O)c(O)c(Cc2ccc(F)cc2)o1` . Output pIC50: < 4.30

Looking up `CCCOc1ccc(C(c2oc(C)cc(=O)c2O)c2oc(C)cc(=O)c2O)cc1` , I see its pIC50 listed as 4.58

Per the records, this compound ( `Cc1cc(=O)c(O)c(C(c2ccc(CCc3ccccc3)cc2)c2oc(C)cc(=O)c2O)o1` ) has pIC50 equal to < 4.30

// pIC50 value for `Cc1cc(=O)c(O)c(Cc2ccccc2)o1` : < 4.30

pIC50 in this record for `Cc1cc(=O)c(O)c(Cc2ccc(OCc3ccccc3)cc2)o1` : < 4.30

// recorded pIC50 for `Cc1cc(=O)c(O)c(Cc2ccc(Cl)cc2)o1` : < 4.30
